// Minimum inhibitory concentration lookup, one value per entry
- Tested on: P. aeruginosa (ATCC 27853)
- Type: cell-based
- condition_parameters: ATCC 27853, 24 h
Peptide text beside a SMILES is read from it.
Answers without a unit are incomplete; give the number and then its unit.

Worked cases, answers included:
CC(C)C[C@H](NC(=O)[C@H](CCCNC(=N)N)NC(=O)[C@H](CC(C)C)NC(=O)[C@H](CCCCN)NC(=O)[C@H](CC(C)C)NC(=O)[C@H](CCCNC(=N)N)NC(=O)[C@H](CC(C)C)NC(=O)[C@H](CC(C)C)NC(=O)[C@@H](N)CCCNC(=N)N)C(N)=O [bienK9] (H-RLLRLKLRL-NH2; N-terminus assumed): 6 µM
CC(C)C[C@H](NC(=O)[C@H](CC(C)C)NC(=O)[C@H](CCCNC(=N)N)NC(=O)[C@H](CC(C)C)NC(=O)[C@H](C)NC(=O)[C@H](CC(C)C)NC(=O)[C@H](CCCNC(=N)N)NC(=O)[C@H](CC(C)C)NC(=O)[C@H](CC(C)C)NC(=O)[C@@H](N)CCCNC(=N)N)C(N)=O [bienA10] (H-RLLRLALRLL-NH2; N-terminus assumed): 25 µM

Could you now consider this next molecule?
What Minimum inhibitory concentration value was documented for this molecule, CC(C)C[C@H](NC(=O)[C@H](C)NC(=O)[C@H](CC(C)C)NC(=O)[C@H](CCCNC(=N)N)NC(=O)[C@H](CC(C)C)NC(=O)[C@H](CC(C)C)NC(=O)[C@@H](N)CCCNC(=N)N)C(=O)N[C@@H](CCCNC(=N)N)C(=O)N[C@@H](CC(C)C)C(=O)N[C@@H](CC(C)C)C(=O)N[C@@H](CCCNC(=N)N)C(N)=O [bienA11] (H-RLLRLALRLLR-NH2; N-terminus assumed) ?
3 µM

====

- Test system: S. aureus (ATCC 6538)
- Format: cell-based
- condition_parameters: ATCC 6538, 24 h
Peptide text beside a SMILES is read from it.
// Minimum inhibitory concentration lookup, one value per entry
Quick note: give the figure in µM, leave out the unit.

CC(C)C[C@H](NC(=O)[C@H](CCCNC(=N)N)NC(=O)[C@H](CC(C)C)NC(=O)[C@H](CCCCN)NC(=O)[C@H](CC(C)C)NC(=O)[C@H](CCCNC(=N)N)NC(=O)[C@H](CC(C)C)NC(=O)[C@H](CC(C)C)NC(=O)[C@@H](N)CCCNC(=N)N)C(N)=O [bienK9] (H-RLLRLKLRL-NH2; N-terminus assumed): 12

Could you now consider this next compound?
What Minimum inhibitory concentration value was documented for this compound, CC(C)C[C@H](NC(=O)[C@H](CC(C)C)NC(=O)[C@H](CCCNC(=N)N)NC(=O)[C@H](CC(C)C)NC(=O)[C@H](C)NC(=O)[C@H](CC(C)C)NC(=O)[C@H](CCCNC(=N)N)NC(=O)[C@H](CC(C)C)NC(=O)[C@H](CC(C)C)NC(=O)[C@@H](N)CCCNC(=N)N)C(N)=O [bienA10] (H-RLLRLALRLL-NH2; N-terminus assumed) ?
3

====

- Test system: P. aeruginosa (ATCC 27853)
- Type: cell-based
- condition_parameters: ATCC 27853, 24 h
- Protocol: MIC values were obtained using broth microdilution against different bacteria following the protocols by Clinical and Laboratory Standards Institute. Specifically, each bacterium (100 μL of 0.5–1 × 10^6 CFU per ml) in Mueller Hinton media broth (Oxoid) was incubated in 96-well microtiter plates at 37 °C on a 3D orbital shaker. […] Following peptide addition, absorbance (600 nm) was measured in a SpectraMax i3x multi-mode microplate reader (Molecular Devices). […]
Peptide text beside a SMILES is read from it.
// Minimum inhibitory concentration lookup, one value per entry
Quick note: give the figure in µM, leave out the unit.

Worked cases, answers included:
CC(C)C[C@H](NC(=O)[C@H](CC(C)C)NC(=O)[C@H](CCCNC(=N)N)NC(=O)[C@H](CC(C)C)NC(=O)[C@H](CCCCN)NC(=O)[C@H](CC(C)C)NC(=O)[C@H](CCCNC(=N)N)NC(=O)[C@H](CC(C)C)NC(=O)[C@H](CC(C)C)NC(=O)[C@@H](N)CCCNC(=N)N)C(N)=O [bienK10] (H-RLLRLKLRLL-NH2; N-terminus assumed): 25
CC(C)C[C@H](NC(=O)[C@H](CC(C)C)NC(=O)[C@H](CCCNC(=N)N)NC(=O)[C@H](CC(C)C)NC(=O)[C@H](CCCCN)NC(=O)[C@H](CC(C)C)NC(=O)[C@H](CCCNC(=N)N)NC(=O)[C@H](CC(C)C)NC(=O)[C@H](CC(C)C)NC(=O)[C@@H](N)CCCNC(=N)N)C(=O)N[C@@H](CCCNC(=N)N)C(N)=O [bienK11] (H-RLLRLKLRLLR-NH2): 12

Could you now consider this next compound?
What Minimum inhibitory concentration value was documented for this compound, CC(C)C[C@H](NC(=O)[C@H](CCCNC(=N)N)NC(=O)[C@H](CC(C)C)NC(=O)[C@H](C)NC(=O)[C@H](CC(C)C)NC(=O)[C@H](CCCNC(=N)N)NC(=O)[C@H](CC(C)C)NC(=O)[C@H](CC(C)C)NC(=O)[C@@H](N)CCCNC(=N)N)C(N)=O [bienA9] (H-RLLRLALRL-NH2; N-terminus assumed) ?
50

====

- System: Human erythrocytes
- assay_remarks: Hemolysis assay
- Format: cell-based
- condition_parameters: 250 µM, pH 7.2
Peptide text beside a SMILES is read from it.
result_type: % hemolysis, at 250 μM (%)
Quick note: give the figure in %, leave out the unit.

CC(C)C[C@H](NC(=O)[C@H](CCCNC(=N)N)NC(=O)[C@H](CC(C)C)NC(=O)[C@H](CCCCN)NC(=O)[C@H](CC(C)C)NC(=O)[C@H](CCCNC(=N)N)NC(=O)[C@H](CC(C)C)NC(=O)[C@H](CC(C)C)NC(=O)[C@@H](N)CCCNC(=N)N)C(N)=O [bienK9] (H-RLLRLKLRL-NH2; N-terminus assumed): 0
CC(C)C[C@H](NC(=O)[C@H](C)NC(=O)[C@H](CC(C)C)NC(=O)[C@H](CCCNC(=N)N)NC(=O)[C@H](CC(C)C)NC(=O)[C@H](CC(C)C)NC(=O)[C@@H](N)CCCNC(=N)N)C(=O)N[C@@H](CCCNC(=N)N)C(=O)N[C@@H](CC(C)C)C(=O)N[C@@H](CC(C)C)C(=O)N[C@@H](CCCNC(=N)N)C(N)=O [bienA11] (H-RLLRLALRLLR-NH2; N-terminus assumed): 25
CC(C)C[C@H](NC(=O)[C@H](CC(C)C)NC(=O)[C@H](CCCNC(=N)N)NC(=O)[C@H](CC(C)C)NC(=O)[C@H](C)NC(=O)[C@H](CC(C)C)NC(=O)[C@H](CCCNC(=N)N)NC(=O)[C@H](CC(C)C)NC(=O)[C@H](CC(C)C)NC(=O)[C@@H](N)CCCNC(=N)N)C(N)=O [bienA10] (H-RLLRLALRLL-NH2; N-terminus assumed): 25
CC(C)C[C@H](NC(=O)[C@H](CC(C)C)NC(=O)[C@H](CCCNC(=N)N)NC(=O)[C@H](CC(C)C)NC(=O)[C@H](CCCCN)NC(=O)[C@H](CC(C)C)NC(=O)[C@H](CCCNC(=N)N)NC(=O)[C@H](CC(C)C)NC(=O)[C@H](CC(C)C)NC(=O)[C@@H](N)CCCNC(=N)N)C(N)=O [bienK10] (H-RLLRLKLRLL-NH2; N-terminus assumed): 0
CC(C)C[C@H](NC(=O)[C@H](CC(C)C)NC(=O)[C@H](CCCNC(=N)N)NC(=O)[C@H](CC(C)C)NC(=O)[C@H](CCCCN)NC(=O)[C@H](CC(C)C)NC(=O)[C@H](CCCNC(=N)N)NC(=O)[C@H](CC(C)C)NC(=O)[C@H](CC(C)C)NC(=O)[C@@H](N)CCCNC(=N)N)C(=O)N[C@@H](CCCNC(=N)N)C(N)=O [bienK11] (H-RLLRLKLRLLR-NH2): 0

What % hemolysis, at 250 μM value was documented for this compound, CC(C)C[C@H](NC(=O)[C@H](CCCNC(=N)N)NC(=O)[C@H](CC(C)C)NC(=O)[C@H](C)NC(=O)[C@H](CC(C)C)NC(=O)[C@H](CCCNC(=N)N)NC(=O)[C@H](CC(C)C)NC(=O)[C@H](CC(C)C)NC(=O)[C@@H](N)CCCNC(=N)N)C(N)=O [bienA9] (H-RLLRLALRL-NH2; N-terminus assumed) ?
25

====

- System: E. coli (ATCC 15597)
- Format: cell-based
- condition_parameters: ATCC 15597, 24 h
Peptide text beside a SMILES is read from it.
result_type: Minimum inhibitory concentration (µM)
Quick note: give the figure in µM, leave out the unit.

CC(C)C[C@H](NC(=O)[C@H](CCCNC(=N)N)NC(=O)[C@H](CC(C)C)NC(=O)[C@H](CCCCN)NC(=O)[C@H](CC(C)C)NC(=O)[C@H](CCCNC(=N)N)NC(=O)[C@H](CC(C)C)NC(=O)[C@H](CC(C)C)NC(=O)[C@@H](N)CCCNC(=N)N)C(N)=O [bienK9] (H-RLLRLKLRL-NH2; N-terminus assumed): 3
CC(C)C[C@H](NC(=O)[C@H](CC(C)C)NC(=O)[C@H](CCCNC(=N)N)NC(=O)[C@H](CC(C)C)NC(=O)[C@H](CCCCN)NC(=O)[C@H](CC(C)C)NC(=O)[C@H](CCCNC(=N)N)NC(=O)[C@H](CC(C)C)NC(=O)[C@H](CC(C)C)NC(=O)[C@@H](N)CCCNC(=N)N)C(=O)N[C@@H](CCCNC(=N)N)C(N)=O [bienK11] (H-RLLRLKLRLLR-NH2): 3
CC(C)C[C@H](NC(=O)[C@H](CC(C)C)NC(=O)[C@H](CCCNC(=N)N)NC(=O)[C@H](CC(C)C)NC(=O)[C@H](C)NC(=O)[C@H](CC(C)C)NC(=O)[C@H](CCCNC(=N)N)NC(=O)[C@H](CC(C)C)NC(=O)[C@H](CC(C)C)NC(=O)[C@@H](N)CCCNC(=N)N)C(N)=O [bienA10] (H-RLLRLALRLL-NH2; N-terminus assumed): 3
CC(C)C[C@H](NC(=O)[C@H](CC(C)C)NC(=O)[C@H](CCCNC(=N)N)NC(=O)[C@H](CC(C)C)NC(=O)[C@H](CCCCN)NC(=O)[C@H](CC(C)C)NC(=O)[C@H](CCCNC(=N)N)NC(=O)[C@H](CC(C)C)NC(=O)[C@H](CC(C)C)NC(=O)[C@@H](N)CCCNC(=N)N)C(N)=O [bienK10] (H-RLLRLKLRLL-NH2; N-terminus assumed): 3
CC(C)C[C@H](NC(=O)[C@H](CCCNC(=N)N)NC(=O)[C@H](CC(C)C)NC(=O)[C@H](C)NC(=O)[C@H](CC(C)C)NC(=O)[C@H](CCCNC(=N)N)NC(=O)[C@H](CC(C)C)NC(=O)[C@H](CC(C)C)NC(=O)[C@@H](N)CCCNC(=N)N)C(N)=O [bienA9] (H-RLLRLALRL-NH2; N-terminus assumed): 6

Could you now consider this next compound?
What Minimum inhibitory concentration value was documented for this compound, CC(C)C[C@H](NC(=O)[C@H](C)NC(=O)[C@H](CC(C)C)NC(=O)[C@H](CCCNC(=N)N)NC(=O)[C@H](CC(C)C)NC(=O)[C@H](CC(C)C)NC(=O)[C@@H](N)CCCNC(=N)N)C(=O)N[C@@H](CCCNC(=N)N)C(=O)N[C@@H](CC(C)C)C(=O)N[C@@H](CC(C)C)C(=O)N[C@@H](CCCNC(=N)N)C(N)=O [bienA11] (H-RLLRLALRLLR-NH2; N-terminus assumed) ?
3
